All values here come from PubChem BioAssay (NCI).

Tested on: RPMI-8226 leukemia
Assay: NCI-60 one-dose screen, 48 h (100 = growth as untreated, 0 = no growth, -100 = all killed)
Settings: 10 µM
This is part of a sample that, as a whole, favours compounds with a hit. Of some 83,000 tested, about 20% had one in any assay.
I'd appreciate it if you could label each record using growth and these ranges: lower level: < 20%; middle level: ≥ 20% and < 90%; upper level: ≥ 90%

Exercise: Which bin, given its growth, does Cc1ccc(-c2c3c(N)c4c(nc3nc3c2c(C)nn3-c2ccccc2)CCCC4)cc1 occupy?
Key: upper level

Exercise: Note: place this compound into its band. Item: COc1cccc(Nc2nc(NCCO)c3ccccc3n2)c1
Key: lower level

Exercise: Class for Cc1nc2cc(Nc3nc(NCCO)nc(Nc4ccc(F)cc4)n3)ccc2n1Cc1ccccc1 ?
Key: lower level

Exercise: Bin this entry: OC[C@@H](O)[C@@H](O)CO
Key: upper level

Exercise: # bin label for COc1cc(OCc2cccc(-c3ccc(C(O)c4nccs4)cc3)c2C)cc(OC)c1C=O (stereo unspecified)
Key: middle level

Exercise: State the class of the compound shown: CCOC(=O)c1cnn(CC(O)c2ccc(F)cc2)c1NC(=O)Nc1ccccc1F (stereo unspecified)
Key: middle level

Exercise: Given Oc1ccc(Cl)cc1CNc1nc2ccccc2[nH]1 , name the class its growth places it in.
Key: lower level

Exercise: Exam item: assign COC(=O)[C@@]12CC[C@@H](C)[C@]3(C[C@@H](c4ccoc4)OC3=O)[C@H]1CC[C@@H]1O[C@@]12C to the correct category.
Key: upper level

Exercise: Determine which band this compound sits in: O=C(CCc1nnc2sc(-c3ccccc3)nn12)c1nc2ccccc2[nH]1
Key: middle level

Exercise: Please let me know in which category the item ONc1nc(NO)c2[nH]cnc2n1 belongs.
Key: middle level

Exercise: Category of O=c1oc2ccccc2cc1-c1csc(N/N=C/c2cc3ccccc3nc2Cl)n1 , please.
Key: upper level
